biological target: hGcgR (Homo sapiens); assay: Functional cAMP activation in the presence of 0.1% casein (no HSA); assay type: cell-based; settings: read-out: Relative cAMP EC50, hGcgR;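 further: intracellular cAMP rise after 30 min at 37 °C, read by HTRF against a cAMP standard curve, scaled from buffer only (0%) to maximal control ligand response (100%)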
Sequence (P47871 26-477): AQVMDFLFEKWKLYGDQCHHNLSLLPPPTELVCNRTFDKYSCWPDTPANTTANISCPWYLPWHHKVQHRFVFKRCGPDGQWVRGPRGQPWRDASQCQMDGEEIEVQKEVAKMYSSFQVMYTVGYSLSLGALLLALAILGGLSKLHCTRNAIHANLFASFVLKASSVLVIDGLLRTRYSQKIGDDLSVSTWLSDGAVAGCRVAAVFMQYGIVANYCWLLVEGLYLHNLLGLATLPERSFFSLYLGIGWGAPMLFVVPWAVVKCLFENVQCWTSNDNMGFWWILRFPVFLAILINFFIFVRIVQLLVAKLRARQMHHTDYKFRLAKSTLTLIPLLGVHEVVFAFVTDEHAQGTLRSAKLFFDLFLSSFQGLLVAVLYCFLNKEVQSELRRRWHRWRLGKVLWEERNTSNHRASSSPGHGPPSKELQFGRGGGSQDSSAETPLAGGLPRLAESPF
Starred links: 1 amine or outer side, 2 acyl side, 3 side chain; linkers in the order of their positions; H or OH if unused. Non-standard residues stand in square brackets, D forms with d. Groups on a side chain read outwards from the residue. No end group written: not given here. *: point of attachment. C18 diacid = O=C(O)CCCCCCCCCCCCCCCCC(=O)*; αMePhe(2-F) = C[C@](N)(Cc1ccccc1F)C(=O)O; γGlu = O=C(O)[C@H](CCC(=O)[*:2])N[*:1]; αMe4Pal = C[C@](N)(Cc1ccncc1)C(=O)O; αMeY = C[C@](N)(Cc1ccc(O)cc1)C(=O)O; 4Pal = N[C@@H](Cc1ccncc1)C(=O)O; αMeL = CC(C)C[C@](C)(N)C(=O)O; αMeS = C[C@](N)(CO)C(=O)O; Orn = NCCC[C@H](N)C(=O)O; AEEA = NCCOCCOCC(=O)O; Aib = CC(C)(N)C(=O)O
Category key, based on recorded EC50: bottom = under 2 nM, middle = from 2 nM up to 4 nM, top = 4 nM and over

Some entries whose results are on file:
substance: H-Y[Aib]QGT[αMePhe(2-F)]TSD[4Pal]SI[αMeL]LD[Orn]K([γGlu-γGlu-C18 diacid])AQ[αMe4Pal][Orn]FI[dE][αMeY]LIEGGPSSGEPPPEEG-NH2 [Example 681]
classification: bottom

substance: Y[Aib]QGT[αMePhe(2-F)]TSD[4Pal]SILLDKK([γGlu-γGlu-C18 diacid])AQ[Aib]AFIEWLQEGGPSSGAPPPSGTEE-NH2 [Example 578]
classification: top

substance: H-Y[Aib]QGT[αMePhe(2-F)]TSD[4Pal][αMeS]I[αMeL]LD[Orn]K([AEEA-γGlu-C18 diacid])AQ[αMe4Pal]EFI[dE][αMeY]LVEGGPSSGEPPPSGSE-NH2 [Example 752]
classification: bottom

substance: H-Y[Aib]QGT[αMePhe(2-F)]TSD[4Pal]SILLDKK([γGlu-γGlu-C18 diacid])AQ[Aib]AFIEYLEEGGPSSGAPPPSGSGE-NH2 [Example 618]
classification: top

substance: H-Y[Aib]QGT[αMePhe(2-F)]TSD[4Pal]SI[αMeL]LD[Orn]K([AEEA-γGlu-C18 diacid])AQ[αMe4Pal][Orn]FI[dE][αMeY]LIEGGPSSGAPPPESE-NH2 [Example 755]
classification: middle

substance: H-Y[Aib]QGT[αMePhe(2-F)]TSD[4Pal]SILLDKK([γGlu-γGlu-C18 diacid])AQ[Aib]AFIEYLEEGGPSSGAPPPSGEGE-NH2 [Example 621]
classification: top

substance: H-Y[Aib]QGT[αMePhe(2-F)]TSD[4Pal][αMeS]I[αMeL]LD[Orn]K([γGlu-γGlu-C18 diacid])AQ[Aib]NFI[dE][αMeY]LIEGGPSSGEPEPEEG-NH2 [Example 474]
classification: middle

substance: Y[Aib]QGT[αMePhe(2-F)]TSD[4Pal][αMeS]I[αMeL]LD[Orn]K([AEEA-γGlu-C18 diacid])AA[Aib]EFI[dE][αMeY]LIEGGPSSGAPPPSGE-NH2 [Example 701]
classification: bottom

Into which category would you place H-Y[Aib]QGT[αMePhe(2-F)]TSD[4Pal][αMeS]I[αMeL]LD[Orn]K([AEEA-γGlu-C18 diacid])AA[Aib]EFI[dE][αMeY]LIEGGPSSGAPPPSGTGQ-OH [Example 724] ?
bottom

src = patent US20240270821A1
